- Tested on: L6-myotubes
- Method: Glucose uptake (3H-2-deoxyglucose) in differentiated L6-myotubes
- Type: cell-based
- Measurement context: compound 1×10^−5 M, read-out: Biological example 1: glucose uptake, activity compared to that of isoproterenol
Structures can show the parent of a compound that is named as a salt.
The entries below come with measured Emax at 10 µM values attached.

The examples below pair each entry with its known result.
• O[C@@H](c1cncc(F)c1)[C@H]1CC[C@H](Cc2ccc(Cl)cc2)N1 [Example 32, dihydrochloride] = > 75%
• COc1ccc(C[C@H]2CC[C@H]([C@@H](O)c3cccc(F)c3)N2)cc1 = 50 to 75%
• CS(=O)(=O)N[C@H]1CC[C@@H](C[C@@H]2CC[C@H]([C@H](O)c3cccc(F)c3)N2)CC1 [Example 38, hydrochloride] = > 75%
• CS(=O)(=O)N[C@H]1CC[C@H](C[C@@H]2CC[C@H]([C@@H](O)c3cccc(F)c3)N2)CC1 [Example 48, hydrochloride] = 50 to 75%
• CC(=O)N(Cc1ccccc1)[C@H]1CC[C@H](C[C@@H]2CC[C@H]([C@@H](O)c3cccc(F)c3)N2)CC1 [Example 43, hydrochloride] = 50 to 75%

Q) Would you mind telling me what Emax at 10 µM value was observed for CS(=O)(=O)N(Cc1ccccc1)[C@H]1CC[C@@H](C[C@@H]2CC[C@H]([C@H](O)c3cccc(F)c3)N2)CC1 [Example 37, hydrochloride] ?
A) 50 to 75%

Q) Would you mind telling me what Emax at 10 µM value was observed for CO[C@H]1CC[C@H](C[C@H]2CC[C@H]([C@H](O)c3ccccc3F)N2)CC1.Cl [Example 7, hydrochloride] ?
A) > 75%

Q) Would you mind telling me what Emax at 10 µM value was observed for COc1ccc(C[C@H]2CC[C@H]([C@@H](O)c3cncc(F)c3)N2)cc1 [Example 24, dihydrochloride] ?
A) > 75%
